# assay_name: molar heat capacity at constant pressure
# condition_summary: 316.2 K; 101.33 kPa; Liquid; Small sample (50 mg) DSC
parameter: molar heat capacity at constant pressure (J/K/mol)
Give your result in J/K/mol as a bare value.

Sample answers from the record:
[[record]]
compound = "CCCCn1cc[n+](C)c1.N#CN=C=[N-] [1-butyl-3-methylimidazolium dicyanamide]"
parameter = "molar heat capacity at constant pressure"
result_number = 367.21

[[record]]
compound = "O=S1(=O)CCCC1"
parameter = "molar heat capacity at constant pressure"
result_number = 184.7

[[record]]
compound = "CCn1cc[n+](C)c1.N#CN=C=[N-] [1-ethyl-3-methylimidazolium dicyanamide]"
parameter = "molar heat capacity at constant pressure"
result_number = 334.21

[[record]]
compound = "CCCCn1cc[n+](C)c1.N#C[S-] [1-butyl-3-methylimidazolium thiocyanate]"
parameter = "molar heat capacity at constant pressure"
result_number = 324.36

[[record]]
compound = "CCn1cc[n+](C)c1.N#C[S-] [1-ethyl-3-methylimidazolium thiocyanate]"
parameter = "molar heat capacity at constant pressure"
result_number = 289.25


In the following, a different compound is considered.
Task: I have this compound here, CCn1cc[n+](C)c1.N#C[C-](C#N)C#N [1-ethyl-3-methyl-1H-imidazolium tricyanomethanide] , and I need its recorded molar heat capacity at constant pressure.
Output: 367.44
